Source: paper PMC11355195

- subject.of.test: COX-1 (Ovis aries, UniProt P05979)
- Construct: The COX-1 enzyme was produced from ram seminal vesicles; purchased Cayman Chemical Company, Ann Arbor, MI, USA; host or cells: ram seminal vesicles (tissue)
- Sequence (P05979 25-600): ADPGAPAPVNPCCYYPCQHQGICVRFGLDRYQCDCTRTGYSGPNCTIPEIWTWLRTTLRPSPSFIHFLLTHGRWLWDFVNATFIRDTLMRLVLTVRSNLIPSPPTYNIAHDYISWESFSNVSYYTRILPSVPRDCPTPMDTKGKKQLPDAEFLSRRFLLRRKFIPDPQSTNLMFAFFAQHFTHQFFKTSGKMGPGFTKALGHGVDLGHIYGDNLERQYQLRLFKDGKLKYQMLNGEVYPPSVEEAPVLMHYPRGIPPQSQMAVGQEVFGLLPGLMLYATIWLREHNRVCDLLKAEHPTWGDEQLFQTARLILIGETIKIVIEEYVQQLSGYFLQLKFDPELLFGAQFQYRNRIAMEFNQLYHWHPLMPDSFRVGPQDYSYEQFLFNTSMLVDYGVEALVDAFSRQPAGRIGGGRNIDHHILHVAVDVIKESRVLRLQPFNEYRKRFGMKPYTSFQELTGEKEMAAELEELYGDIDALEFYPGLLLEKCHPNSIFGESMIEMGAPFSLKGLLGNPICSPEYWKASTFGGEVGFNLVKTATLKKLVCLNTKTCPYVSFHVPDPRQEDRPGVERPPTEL
- measurement.notes: COX-1-catalyzed prostaglandin production inhibition
- Type: biochemical, ram
endpoint.label: IC50 (µM)
Give a bare numeral; the unit µM is implied.

Data request: For "Cc1ccc(C(C)C)cc1O" , what is its reported IC50?
Data returned: 470

---

- subject.of.test: 5-LOX (Glycine max)
- Sequence (P08170 whole entry): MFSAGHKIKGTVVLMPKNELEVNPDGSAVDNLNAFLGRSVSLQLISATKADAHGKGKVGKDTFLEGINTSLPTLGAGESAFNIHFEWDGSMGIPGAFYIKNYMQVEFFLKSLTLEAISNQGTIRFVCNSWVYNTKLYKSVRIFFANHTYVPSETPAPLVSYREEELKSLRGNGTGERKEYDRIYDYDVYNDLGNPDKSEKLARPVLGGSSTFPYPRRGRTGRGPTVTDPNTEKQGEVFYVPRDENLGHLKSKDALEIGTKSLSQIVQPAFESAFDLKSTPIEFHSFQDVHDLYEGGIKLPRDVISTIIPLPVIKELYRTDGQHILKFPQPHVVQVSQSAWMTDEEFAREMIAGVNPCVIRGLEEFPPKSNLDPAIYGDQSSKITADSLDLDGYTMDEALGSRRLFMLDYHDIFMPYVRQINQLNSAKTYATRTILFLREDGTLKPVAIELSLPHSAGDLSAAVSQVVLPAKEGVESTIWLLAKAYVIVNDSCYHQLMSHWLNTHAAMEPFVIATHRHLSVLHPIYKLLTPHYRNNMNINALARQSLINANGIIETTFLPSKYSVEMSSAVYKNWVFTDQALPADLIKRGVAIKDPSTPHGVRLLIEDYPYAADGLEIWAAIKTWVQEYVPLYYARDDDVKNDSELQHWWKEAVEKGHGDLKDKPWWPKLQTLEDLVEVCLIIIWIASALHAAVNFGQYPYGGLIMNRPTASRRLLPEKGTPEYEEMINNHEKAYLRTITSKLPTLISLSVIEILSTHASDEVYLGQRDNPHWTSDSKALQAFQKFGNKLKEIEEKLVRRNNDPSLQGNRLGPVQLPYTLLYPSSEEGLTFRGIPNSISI
endpoint.label: IC50
Write the figure, then the unit, nothing else.

Data request: Observed IC50 on 5-LOX (Glycine max) for "Cc1ccc(C(C)C)c(O)c1" , please.
Data returned: 308 µM
